Data provenance is patent US8445636B2.

Tested on: Candida albicans ATCC 10231
procedure text: microbe, parasite or virus in culture
Format: cell-based
recorded conditions: ATCC 10231, pH 5.5; read-out: Minimal inhibitory concentrations, C. Albicans With serum
Non-standard residues stand in square brackets, D forms with d. Residues, ends and D or L forms follow the SMILES beside them. *: point of attachment. Lauroyl = CCCCCCCCCCCC(=O)*
readout label: MIC (µM)
The reply should contain only the number, in µM.

Name the reported MIC value associated with the compound CCCCCCCCCCCC(=O)N[C@H](CC(C)C)C(=O)N[C@@H](CCCNC(=N)N)C(=O)N[C@@H](CCCNC(=N)N)C(=O)N[C@H](CC(C)C)C(=O)N[C@H](CC(C)C)C(=O)N[C@@H](CCCNC(=N)N)C(=O)N[C@@H](CCCNC(=N)N)C(=O)N[C@H](CC(C)C)C(=O)N[C@H](CC(C)C)C(=O)N[C@@H](CCCNC(=N)N)C(=O)N[C@@H](CCCNC(=N)N)C(=O)N[C@H](CC(C)C)C(N)=O [lipopeptide 25] (Lauroyl-[dL]RR[dL][dL]RR[dL][dL]RR[dL]-NH2) 100
